Each recorded value in this set is attributed to PubChem BioAssay (NCI).

Give measured TGI for each item. Keep answers brief.
- System: SNB-19 CNS
- method-summary: NCI tumour cell line growth inhibition, 48 h

Worked examples follow.
compound | TGI
COc1ccc(/C=C\c2cc(OC)c(O[Si](C)(C)C(C)(C)C)c(OC)c2)cc1 | > 100 µM
CCC1=NC(CO)[C@H](c2ccccc2)O1 (some centres not stated) | > 100 µM
COc1cc(-c2n/c(=C\c3c(O)[nH]c4ccc(Cl)cc34)cc3c2=Nc2ccccc2-3)ccc1F | 4.11 µM
CCOC(=O)C1(C#N)C(c2ccccc2)CC(O)(c2ccc(Cl)cc2)C(C(=O)c2ccc(Cl)cc2)C1c1ccccc1 (configuration not stated) | 90.8 µM
COc1cc(CC(C)NC(C)=O)cc(OC)c1 (configuration not stated) | > 100 µM
O=[N+]([O-])c1ccc(NC(=S)N=Nc2c(O)[nH]c3ccc([N+](=O)[O-])cc23)cc1 | 69.3 µM
COc1ccc2[nH]c(O)c(C(=Nc3ccc(N(C)C(=O)CN4CCN(C)CC4)cc3)c3ccccc3)c2c1 | 10.7 µM
O=S(=O)(c1cc(Cl)ccc1Cl)n1ccnc1 | > 100 µM
CCOC(=O)/C=C/C1=C(c2cccs2)c2ccccc2CC1 | > 100 µM
Cc1ccc(-c2cc(-c3ccccc3)c(C#N)c(=O)n2C2OC(CO)C(O)C(O)C2O)cc1 (configuration not stated) | > 100 µM

Could I get TGI for every one of these entries?
1. C/C(Cl)=N\OC(=O)Nc1ccc(C)cc1
2. Nc1ccc(C(=O)CC(N)C(=O)O)cc1O (configuration not stated)

1: > 100 µM; 2: > 100 µM

Could I get TGI for every one of these entries?
1. COc1cc2cc(C(=O)N3C[C@H](CCl)c4c3cc(N)c3ccccc43)[nH]c2c(OC)c1OC
2. NC(=O)c1csc(C2(O)COC(CO)C2O)n1 (configuration not stated)
3. Cc1cc2ncn(C3CCCCO3)c2cc1C (configuration not stated)
4. NC(=O)c1cc2c3ccccc3ccn2c1-c1ccccc1
5. CCCCN(CCCC)c1c([N+](=O)[O-])c(=O)nc2ccccn12
6. NC(N)=NCCC1OC(=O)C2=C1c1c(O)ccc3nccc(c13)O2 (configuration not stated)
7. CCn1c(-c2nonc2N)nc2c(C#CC(C)(C)O)nc(OCCNC)cc21

1.24 µM
> 100 µM
> 100 µM
22.1 µM
> 100 µM
> 100 µM
> 25 µM
